Provide the recorded PRE-SIT IL-5 for the entries that follow.
- Tested on: Bla g-specific T cells (PBMC)
- Assay Text: ELISPOT assays: IL-5, IFN-γ and IL-10 production by in vitro expanded PBMC of Cockroach-allergic donors
- Type: cell-based, human
- Study Conditions: before SIT
Give bare numbers, in SFC/10^6.

MVGTILEMLGHRLDD (listed as Blattella germanica) [Region 24, Bla g 6 position 31] ... 50

Each sequence below has a recorded value; state its PRE-SIT IL-5.
1. GYITTNVLREILKEL (listed as Blattella germanica) [Region 25]
2. LIDDVLAILPLDDLK (listed as Blattella germanica) [Region 2, Bla g 1 position 331]

50
997

Each sequence below has a recorded value; state its PRE-SIT IL-5.
1. ALREKVLGLPAIKAWVAKRP (listed as Blattella germanica) [Region 17, Bla g 5 position 181]
2. PEFQSIVQTLNAMPEYQNLL (listed as Blattella germanica) [Region 3, Bla g 1 position 40]

0
87

* * *

- Test system: Bla g-specific T cells (PBMC)
- Assay Text: ELISPOT assays: IL-5, IFN-γ and IL-10 production by in vitro expanded PBMC of Cockroach-allergic donors
- Type: cell-based, human
- Study Conditions: share of total Bla g specific response
Measured Parameter: % Total Response (%)
One number for each entry, in %.

FETIVVTVDSLPEFK (listed as Blattella germanica) [Region 1, Bla g 1 position 351] ... 0.7

Each sequence below has a recorded value; state its % Total Response.
1. GYITTNVLREILKEL (listed as Blattella germanica) [Region 25]
2. HFFIGDFFVDHYYSE (listed as Blattella germanica) [Region 9, Bla g 2 position 321]
3. MVGTILEMLGHRLDD (listed as Blattella germanica) [Region 24, Bla g 6 position 31]

[0.2, 1.0, 1.3]

Each sequence below has a recorded value; state its % Total Response.
1. ALREKVLGLPAIKAWVAKRP (listed as Blattella germanica) [Region 17, Bla g 5 position 181]
2. SGTVDFDEFMEMMTG (listed as Blattella germanica) [Region 22, Bla g 6 position 140]

[20.3, 0.2]

* * *

- Tested on: Bla g-specific T cells (PBMC)
- Assay Text: ELISPOT assays: IL-5, IFN-γ and IL-10 production by in vitro expanded PBMC of Cockroach-allergic donors
- Type: cell-based, human
- Study Conditions: individual peptide, one line per responding donor
Provide the recorded IL-5 for the entries that follow.

Take a look at these entries with their results.
PLYKLVHVFINTQYA (listed as Blattella germanica) [Region 6, Bla g 2 position 26] ... 0 SFC
EFVTLAAKFIIEEDS (listed as Blattella germanica) [Region 19, Bla g 6 position 71] ... 443 SFC
PEFQSIVQTLNAMPE (listed as Blattella germanica) ... 0 SFC
FAVATITHAAELQRV (listed as Blattella germanica) [Region 5, Bla g 2 position 11] ... 0 SFC

Which IL-5 value is on record for HMAKEDLVANQPNLK (listed as Blattella germanica) ?
273 SFC

* * *

- Test system: Bla g-specific T cells (PBMC)
- Assay Text: ELISPOT assays: IL-5, IFN-γ and IL-10 production by in vitro expanded PBMC of Cockroach-allergic donors
- Format: cell-based, human
- Study Conditions: share of total Bla g specific response
Measured Parameter: % Total Response (%)
Give bare numbers, in %.

YFVAILDYLNHMAKE (listed as Blattella germanica) [Region 15, Bla g 5 position 156] ... 7.1
PEFQSIVQTLNAMPEYQNLL (listed as Blattella germanica) [Region 3, Bla g 1 position 40] ... 1.3
EFVTLAAKFIIEEDS (listed as Blattella germanica) [Region 19, Bla g 6 position 71] ... 1.8
EEFCTLASRFLVEED (listed as Blattella germanica) [Region 20, Bla g 6 position 66] ... 5.9
PEQIQLLKKAFDAFD (listed as Blattella germanica) [Region 23, Bla g 6 position 6] ... 5.1

Each sequence below has a recorded value; state its % Total Response.
1. EQISVLRKAFDAFDREKSGS (listed as Blattella germanica) [Region 18, Bla g 6 position 11]
2. ISDFRAAIANYHYDA [Region 13]
3. TKKFDEVVKANGGYLAAGKL (listed as Blattella germanica) [Region 14, Bla g 5 position 131]

1: 3.1; 2: 8.6; 3: 3.8

Attribution: patent US11421006B2
